So I've got a bunch of compounds here, and I need their inhibition at 30 µM values.
target: UniProt P28482; assay: Kinase inhibition assay: MAPK2; assay type: biochemical; settings: 30µM Testsubstanz (100 µM ATP); read-out: Hemmung von Kinasen in % MAPK2 (h)
Sequence (P28482 whole entry): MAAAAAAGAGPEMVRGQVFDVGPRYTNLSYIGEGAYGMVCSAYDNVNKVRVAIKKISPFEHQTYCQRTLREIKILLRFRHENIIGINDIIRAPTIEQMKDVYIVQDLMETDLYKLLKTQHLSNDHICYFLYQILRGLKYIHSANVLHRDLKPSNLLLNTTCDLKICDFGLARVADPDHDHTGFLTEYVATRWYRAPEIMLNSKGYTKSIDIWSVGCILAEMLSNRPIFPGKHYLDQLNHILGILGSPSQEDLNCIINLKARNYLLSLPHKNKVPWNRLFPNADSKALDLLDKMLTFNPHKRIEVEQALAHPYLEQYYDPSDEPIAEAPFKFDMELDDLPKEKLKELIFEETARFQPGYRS
Numbers only, in %.

Sample answers from the record:
{"compound": "c1ccc(Sc2ncnc3[nH]cnc23)cc1 [Verbd. 15, 6-Phenylsulfanyl-9H-purin]", "inhibition at 30 µM / %": 13}
{"compound": "COc1ncnc2ncn(Cc3ccc(F)cc3)c12 [Verbd. 44, 7-(4-Fluoro-benzyl)-6-methoxy-7H-purin]", "inhibition at 30 µM / %": 3}
{"compound": "c1ccc(Nc2ncnc3[nH]cnc23)cc1 [Verbd. 1, Phenyl-(9H-purin-6-yl)-amin]", "inhibition at 30 µM / %": 33}
{"compound": "Fc1ccc(CSc2ncnc3[nH]cnc23)cc1 [Verbd. 10, 6-(4-Fluoro-benzylsulfanyl)-9H-purin]", "inhibition at 30 µM / %": 5}
{"compound": "Fc1ccc(Cn2cnc3c(Sc4ccc(F)cc4)ncnc32)cc1 [Verbd. 77]", "inhibition at 30 µM / %": 0}
{"compound": "Fc1ccc(Sc2ncnc3[nH]cnc23)cc1 [Verbd. 16, 6-(4-Fluoro-phenylsulfanyl)-9H-purin]", "inhibition at 30 µM / %": 12}
{"compound": "Fc1ccc(Sc2ncnc3c2ncn3Cc2ccccc2)cc1 [Verbd. 75]", "inhibition at 30 µM / %": 0}

Now look at this one.
## Input Report inhibition at 30 µM for Cn1cnc2c(Sc3ccc(F)cc3)ncnc21 [Verbd. 18] please.
## Output 12

----------
target: c-RAF (h) (Homo sapiens, UniProt P04049); assay: Kinase inhibition assay (33P-ATP, P30 filter, scintillation counting): c-RAF; format: biochemical; details: 40 min; 30µM Testsubstanz (100 µM ATP); read-out: Hemmung von Kinasen in % c-RAF (h)
Sequence (P04049 whole entry): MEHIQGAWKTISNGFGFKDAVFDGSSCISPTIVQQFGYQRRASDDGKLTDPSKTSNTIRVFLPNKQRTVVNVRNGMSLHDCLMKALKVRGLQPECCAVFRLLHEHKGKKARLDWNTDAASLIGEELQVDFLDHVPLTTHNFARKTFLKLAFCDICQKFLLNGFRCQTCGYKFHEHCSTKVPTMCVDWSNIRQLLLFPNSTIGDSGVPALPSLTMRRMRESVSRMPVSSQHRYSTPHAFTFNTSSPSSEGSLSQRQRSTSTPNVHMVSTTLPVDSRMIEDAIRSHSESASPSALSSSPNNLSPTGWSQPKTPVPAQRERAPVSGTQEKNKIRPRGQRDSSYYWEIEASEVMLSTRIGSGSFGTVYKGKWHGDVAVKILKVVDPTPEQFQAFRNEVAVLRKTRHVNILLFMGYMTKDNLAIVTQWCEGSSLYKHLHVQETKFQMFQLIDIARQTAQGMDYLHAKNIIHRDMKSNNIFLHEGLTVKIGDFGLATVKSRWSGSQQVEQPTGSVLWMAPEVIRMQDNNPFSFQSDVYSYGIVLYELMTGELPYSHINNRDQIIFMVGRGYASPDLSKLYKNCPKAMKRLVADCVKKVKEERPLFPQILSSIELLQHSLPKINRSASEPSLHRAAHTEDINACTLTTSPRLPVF
Label YES when inhibition at 30 µM >= 20%; otherwise NO.

These solved cases illustrate the format of a correct answer.
{"compound": "Fc1ccc(Cn2cnc3c(Sc4ccc(F)cc4)ncnc32)cc1", "discreteLabel": "NO"}
{"compound": "Cn1cnc2c(Nc3ccccc3)ncnc21", "discreteLabel": "YES"}
{"compound": "Fc1ccc(Cn2cnc3c(Sc4ccccc4)ncnc32)cc1", "discreteLabel": "NO"}
{"compound": "Cn1c(-c2ccc([S+](C)[O-])cc2)nc2c(Sc3ccc(F)cc3)ncnc21 (centres unmarked)", "discreteLabel": "NO"}
{"compound": "Cn1cnc2c(Nc3ccc(F)cc3)ncnc21", "discreteLabel": "YES"}

## Input Item COc1ncnc2ncn(Cc3ccc(F)cc3)c12 with inhibition at 30 µM of 20% or above?
## Output NO

## Input Decide: inhibition at 30 µM of Fc1ccc(Sc2ncnc3c2ncn3Cc2ccccc2)cc1 >= 20%?
## Output NO

----------
Give measured inhibition at 30 µM for each item. Keep answers brief.
target: SAPK2a (h) (Homo sapiens, UniProt Q16539); test: Kinase inhibition assay (33P-ATP, P30 filter, scintillation counting): SAPK2a; assay type: biochemical; details: 30µM Testsubstanz (100 µM ATP); read-out: Hemmung von Kinasen in % SAPK2a (h)
Sequence (Q16539 whole entry): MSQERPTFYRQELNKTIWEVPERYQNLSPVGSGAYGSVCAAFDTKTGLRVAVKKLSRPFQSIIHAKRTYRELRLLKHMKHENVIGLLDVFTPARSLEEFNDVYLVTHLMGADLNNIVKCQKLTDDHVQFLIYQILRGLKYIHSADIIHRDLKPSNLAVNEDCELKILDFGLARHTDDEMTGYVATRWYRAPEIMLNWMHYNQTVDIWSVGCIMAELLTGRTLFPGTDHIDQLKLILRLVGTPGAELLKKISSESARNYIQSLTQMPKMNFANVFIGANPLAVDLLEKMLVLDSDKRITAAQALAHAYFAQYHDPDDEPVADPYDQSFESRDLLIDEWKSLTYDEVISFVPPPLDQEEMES
Numbers only, in %.

Some compounds with known inhibition at 30 µM results, for comparison:
{"compound": "Cn1cnc2c(Sc3ccc(F)cc3)ncnc21 [Verbd. 18]", "dataValue": 38}
{"compound": "Cn1c(-c2ccccc2)nc2c(-c3ccc(F)cc3)ncnc21 [Verbd. 41]", "dataValue": 23}
{"compound": "Fc1ccc(Sc2ncnc3[nH]cnc23)cc1 [Verbd. 16, 6-(4-Fluoro-phenylsulfanyl)-9H-purin]", "dataValue": 72}
{"compound": "c1ccc(Sc2ncnc3[nH]cnc23)cc1 [Verbd. 15, 6-Phenylsulfanyl-9H-purin]", "dataValue": 54}
{"compound": "c1ccc(Nc2ncnc3[nH]cnc23)cc1 [Verbd. 1, Phenyl-(9H-purin-6-yl)-amin]", "dataValue": 34}
{"compound": "Fc1ccc(Nc2ncnc3[nH]cnc23)cc1 [Verbd. 2, (4-Fluoro-phenyl)-(9H-purin-6-yl)-amin]", "dataValue": 30}

Fill in inhibition at 30 µM for each of the 3 compounds listed.
1. Fc1ccc(Sc2ncnc3[nH]ccc23)cc1 [Verbd. 53]
2. Cn1c(-c2ccccc2)nc2c(Sc3ccccc3)ncnc21 [Verbd. 23]
3. Cn1c(-c2ccc([S+](C)[O-])cc2)nc2c(Sc3ccc(F)cc3)ncnc21 (centres unmarked) [Verbd. 60]

## Output
1: 79; 2: 44; 3: 44

The reported measurements were obtained from patent EP1444982A1.
